Target: T1, factor H binding protein (fHbp) variant 1.1, recombinant (Neisseria meningitidis MC58, fHbp v1.1)
T1 construct: also called fHbp v1.1; fHbp v1; source: E. coli BL21(DE3), purified (Ni-NTA, SEC when necessary); not shown: His6, C-terminal, kept
T1 chain: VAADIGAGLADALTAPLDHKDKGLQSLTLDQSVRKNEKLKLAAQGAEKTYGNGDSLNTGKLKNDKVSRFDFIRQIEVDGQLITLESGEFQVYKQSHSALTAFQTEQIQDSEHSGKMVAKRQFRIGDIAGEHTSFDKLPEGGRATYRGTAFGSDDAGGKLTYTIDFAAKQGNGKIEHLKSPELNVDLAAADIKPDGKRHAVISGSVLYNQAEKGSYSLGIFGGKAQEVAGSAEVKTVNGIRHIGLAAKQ
Assay: SPR
Conditions: both partners purified
ASSAY ENDPOINT: Kd
Could you give the number and then its unit, please?

Query: Sample human anti-fHbp mAb 4B10 (antibody, V domains shown, IgG1; source: Expi293, transient transfection, purified (protein G Sepharose)) VH: EVQLVESGGGLVKPGGSLRLSCAASGFAFSTYSLHWVRQAPGKGLEWVSAITSSGSFLYYADSLKGRFTVSRDNAKNSLFLQMNSLRAGDTAVYYCARALQVEDGFPMFSGLDVWGQGTTVTVSS VL: QTVVTQPPSVSEAPRQRVAISCSGSSSNIGDNSVSWYQQLPGKAPKLLIYDDDLLPSGVSDRFSASKSGTSASLAISGLQSEDEAEYYCAAWDDSLKGVVFGGGTKLTVL — what was its Kd?
Response: 0.296 nM

Query: Could you share which Kd value was measured for human anti-fHbp mAb 1D1 (antibody, V domains shown, IgG1; source: Expi293, transient transfection, purified (protein G Sepharose)) VH: QVQLVGSGGGLVKPGGSLRLSCAASGFTFSSYTMNWVRQAPGKGLEWVSSISSSSGYIYYADSLKGRFTISRDDAKNSLFLQMNSLRAEDTAVYFCARDKVLPAPPGFYGLDVWGPGTTVTVSS VL: QSVVTQPPSVSAAPGQKVTISCSGSSSNIEDNFVSWYQQLPGTAPKLLIYDNNQRPSGIPDRFSGSKSGTSATLGITGLQTGDEADYYCATWDNSLSARVFGGGTKLTVL ?
Response: 0.893 nM

Query: Which measured Kd value corresponds to human anti-fHbp mAb 2G1 (antibody, V domains shown, IgG1; source: Expi293, transient transfection, purified (protein G Sepharose)) VH: QVQLVESGGDLVKPGGSLRLSCVASGFTFSSYTMNWVRQAPGKGLEWVSSITSSSSFTYYADSVKGRFIISRDNAKNSLSLQMNNLRVEDTATYYCARRKDSSDYDWYYYYGMDVWGLGTTVTVSS VL: QSVLTQPPSVSAAPGQKVTISCSGSSSNIGDNYMSWYQQIPGTAPKLLIFDNDQRPSGIPDRFSASKSGTSATLDITGFQTGDEADYYCGTWDSGLSAPVFGGGTKLTVL ?
Response: 1.08 nM
